All figures here come from the antibiotic and cytotoxicity screens of Wong et al. (2023).

system: HSkMC; assay: cytotoxicity call (relative viability < 0.9); conditions: 10 µM
Hit rate of the full screen: of about 39,000 compounds, about 1,500 (3.8%) were called active. What follows is part of a selection rich in actives, with near analogues and random picks from the rest.
Classes used: active, inactive

# Compound, Category
data = [
    ("C[C@H](CO)N1C[C@H](C)[C@@H](CN(C)Cc2ccc(Cl)c(Cl)c2)Oc2c(NC(=O)c3ccc(-c4nccs4)cc3)cccc2C1=O", "inactive"),
    ("Cc1cccc2c3c(ccc12)C1=C(C(=O)C3=O)C(C)CO1 (stereo not drawn)", "inactive"),
    ("C[C@H]1CN([C@@H](C)CO)C(=O)c2cccc(NC(=O)c3ccc(-c4nccs4)cc3)c2O[C@H]1CN(C)C(=O)Nc1ccc(C(F)(F)F)cc1", "inactive"),
    ("COc1cc(N2CCC(N(C)C)CC2)ccc1Nc1ncc(Cl)c(Nc2ccccc2P(C)(C)=O)n1", "active"),
    ("C[C@@H]1CN([C@H](C)CO)C(=O)c2cccc(NC(=O)c3ccc(-c4nccs4)cc3)c2O[C@@H]1CN(C)Cc1ccc(C(F)(F)F)cc1", "inactive"),
    ("COc1cc(C=CC(=O)N2CCCCCCC2)cc(OC)c1OC", "inactive"),
    ("C[C@@H]1O[C@H](O)[C@@H](F)[C@H](O)[C@@H]1O", "inactive"),
    ("COc1cc(C=CC(=O)N2CCC=CC2=O)cc(OC)c1OC", "active"),
]

###

system: HSkMC; experiment: cytotoxicity call (relative viability < 0.9); conditions: 10 µM
Screen size: about 39,000 compounds; about 1,500 (3.8%) were called active. The sample holds actives, similar compounds and a random draw of the others, so the mix is not that of the screen.
Outcomes: active, inactive

# Record smiles, Category
rows = [
    ("COc1ccc(S(=O)(=O)N[C@H]2C=C[C@H](CC(=O)N3CCC(Cc4ccccc4)CC3)O[C@@H]2CO)cc1", "inactive"),
    ("CCN(CC)[C@H]1CCS(=O)(=O)C1", "inactive"),
    ("COc1ccc2c3c(n(c2c1)C)[C@@H](CO)N(C[C@]13CCN(CC1)C(=O)c1ccccc1F)C(=O)Nc1ccccc1F", "active"),
    ("NC(=O)CCN1C(=O)c2ccccc2C1=O", "inactive"),
    ("C[C@H](CO)N1C[C@H](C)[C@@H](CN(C)Cc2ccc(C(F)(F)F)cc2)Oc2c(NS(=O)(=O)c3ccc(Cl)cc3)cccc2C1=O", "inactive"),
]

###

system: HSkMC (human skeletal muscle cells); experiment: cytotoxicity call (relative viability < 0.9); conditions: 10 µM
Out of some 39,000 compounds screened, about 1,500 (3.8%) were called active. The entries come from a sample that favours actives as a whole.
Labels: True = active, False = inactive

# Record smiles, Category
data = [
    ("C[C@H]1CCCCO[C@@H](CN(C)Cc2ccccc2)[C@@H](C)CN([C@@H](C)CO)C(=O)c2cc(NC(=O)Nc3ccc(F)cc3)ccc2O1", "True"),
    ("COc1ccc(CN(C)C[C@H]2OCCCC[C@H](C)Oc3ccc(NC(=O)c4ccccc4)cc3C(=O)N([C@@H](C)CO)C[C@H]2C)cc1", "False"),
    ("Cc1noc(C)c1NC(=O)N(C)C[C@@H]1Oc2ccc(NC(=O)Nc3ccc(C(F)(F)F)cc3)cc2C(=O)N([C@H](C)CO)C[C@@H]1C", "False"),
    ("C[C@H](CO)N1C[C@H](C)[C@@H](CN(C)C(=O)Nc2cccc3ccccc23)OCCCC[C@H](C)Oc2ccc(NC(=O)NC3CCCCC3)cc2C1=O", "True"),
    ("CCc1cccc(NC(=O)O[C@H]2[C@H](OC(=O)Nc3ccccc3-c3ccccc3)[C@H](OC(=O)Nc3ccccc3-c3ccccc3)[C@@H](OC)O[C@@H]2CO)c1", "False"),
    ("C[C@@H]1CCCCO[C@H](CN(C)Cc2ccccc2)[C@H](C)CN([C@H](C)CO)C(=O)c2cc(NC(=O)Nc3ccc(F)cc3)ccc2O1", "False"),
    ("CO[C@H]1O[C@H](CO)[C@@H](OC(=O)Nc2ccccc2-c2ccccc2)[C@H](OC(=O)Nc2ccccc2)[C@@H]1OC(=O)Nc1ccccc1", "False"),
]
